Molecular target: UniProtKB P43236
Experiment: Cathepsin K Assay (hrbCat K)
Type: biochemical
Settings: Z-Leu-Arg-AMC substrate, pH 5.5, 15 min preincubation; read-out: hrbCat K (IP (nM))
PROPERTY_MEASURED: IC50 (nM)

I. CC(=O)N1CC(c2ccc(-c3sc(-c4ccc(F)cc4)nc3[C@@H]3CCCC[C@H]3C(=O)NC3(C#N)CC3)cc2)C1 [Example 151]
II. N#CC1(NC(=O)[C@@H]2CCCC[C@H]2c2nc(N3CCC4(CC3)CC4)sc2-c2ccc(N3CCS(=O)(=O)CC3)cc2)CC1 [Example 102]
III. N#Cc1cc(F)ccc1-c1nc([C@@H]2CCCC[C@H]2C(=O)NC2(C#N)CC2)c(-c2ccc(N3CCS(=O)(=O)CC3)cc2)s1 [Example 61]
Lab note: order the above by reported IC50, lowest first, highest last. Would you mind listing the labels in the order requested? I, II, III

A. N#CC(NC(=O)[C@@H]1CCCC[C@H]1c1nc(-c2ccc(F)cn2)sc1-c1ccc(N2CCS(=O)(=O)CC2)cc1)C1CCOCC1 (single isomer, unassigned) [Example 185]
B. N#CC1(NC(=O)[C@@H]2CCCC[C@H]2c2nc(C3(c4ccc(F)cc4)CC3)sc2-c2ccc(N3CCS(=O)(=O)CC3)cc2)CC1 [Example 184]
Given A and B , report the one with the higher recorded IC50. // return label of chosen record B
(B: 5.2 nM, A: 1.3 nM)

I. N#CC(CC(F)(F)F)NC(=O)[C@@H]1CCCC[C@H]1c1nc(-c2ccc(F)cn2)sc1-c1ccc(N2CCS(=O)(=O)CC2)cc1 (single isomer, unassigned) [Example 194]
II. CN=S1(=O)CCN(c2ccc(-c3oc(C(C)(C)C)nc3[C@@H]3CC[C@H](F)C[C@H]3C(=O)N[C@H](C#N)C(C)C)cc2)CC1 [Example 174]
III. N#CC1(NC(=O)[C@@H]2CCCC[C@H]2c2nc(-c3ccc(F)cc3)sc2-c2ccc(C3CN(C(=O)NCC(F)(F)F)C3)cc2)CC1 [Example 150]
IV. Cc1nc([C@H]2CCCC[C@@H]2C(=O)NCC#N)c(-c2ccc(C(=O)N3CCOCC3)cc2)s1 [Example 248]
Place the items in sequence of falling IC50. Would you mind listing the labels in the order requested? IV, II, I, III

====

Biological target: human cathepsin F (Homo sapiens, UniProt Q9UBX1)
Test: Cathepsin F assay (hCat F)
Assay type: biochemical
Settings: Z-Phe-Arg-AMC substrate, pH 5.5, 15 min preincubation; read-out: hCat F (IP (nM))
PROPERTY_MEASURED: IC50 (nM)

Illustrative cases are given below, each with its answer.
# value lookup — system human cathepsin F (Homo sapiens, UniProt Q9UBX1), readout IC50, item Cc1nc(-c2nc([C@@H]3CCCC[C@H]3C(=O)NC3(C#N)CC3)c(-c3ccc(N4CCS(=O)(=O)CC4)cc3)s2)cs1 1110

# value lookup — system human cathepsin F (Homo sapiens, UniProt Q9UBX1), readout IC50, item N#CC(NC(=O)[C@@H]1CCCC[C@H]1c1nc(-c2ccc(F)cn2)sc1-c1ccc(N2CCS(=O)(=O)CC2)cc1)C(F)(F)F (mixture of isomers) 60

# value lookup — system human cathepsin F (Homo sapiens, UniProt Q9UBX1), readout IC50, item N#CC1(NC(=O)[C@@H]2CCCC[C@H]2c2nc(N)sc2-c2ccc(N3CCS(=O)(=O)CC3)cc2)CC1 7410

# value lookup — system human cathepsin F (Homo sapiens, UniProt Q9UBX1), readout IC50, item N#CC1(NC(=O)[C@@H]2CCCC[C@H]2c2nc(N3CCOC(c4ccccc4)C3)sc2-c2ccc(N3CCS(=O)(=O)CC3)cc2)CC1 (stereo partly shown) 1000

# value lookup — system human cathepsin F (Homo sapiens, UniProt Q9UBX1), readout IC50, item N#CC1(NC(=O)[C@@H]2CCCC[C@H]2c2nc(-c3cncc(F)c3)sc2-c2ccc(N3CCS(=N)(=O)CC3)cc2)CC1 1560

# value lookup — system human cathepsin F (Homo sapiens, UniProt Q9UBX1), readout IC50, item Cc1nc([C@@H]2CC[C@H](F)C[C@H]2C(=O)N[C@@H](C)C#N)c(-c2ccc(N3CCC(F)(F)CC3)cc2)s1 5340

A. CC(C)C(C#N)NC(=O)[C@@H]1CCCC[C@H]1c1nc(-c2ccc(F)cn2)sc1-c1ccc(N2CCS(=O)(=O)CC2)cc1 (single isomer, unassigned) [Example 191]
B. N#CC1(NC(=O)[C@@H]2CCCC[C@H]2c2nc(C3CCC(F)(F)C3)sc2-c2ccc(N3CCS(=O)(=O)CC3)cc2)CC1 (mixture of isomers)
Given A and B , report the one with the higher recorded IC50. // return label of chosen record B
(B: 1000 nM, A: 691 nM)

a. Cc1ccc(-c2nc([C@@H]3CC[C@H](F)C[C@H]3C(=O)N[C@H](C#N)C(C)C)c(-c3ccc(N4CCS(=O)(=O)CC4)cc3)s2)nn1
b. N#CC1(NC(=O)[C@@H]2CCCC[C@H]2c2nc(C(F)(F)c3ccccc3)sc2-c2ccc(N3CCS(=O)(=O)CC3)cc2)CC1
# min-compare on IC50 between a and b // return label of chosen record b
(b: 810 nM, a: 2930 nM)

====

Target: human cathepsin F (Homo sapiens)
Sequence (Q9UBX1 271-484): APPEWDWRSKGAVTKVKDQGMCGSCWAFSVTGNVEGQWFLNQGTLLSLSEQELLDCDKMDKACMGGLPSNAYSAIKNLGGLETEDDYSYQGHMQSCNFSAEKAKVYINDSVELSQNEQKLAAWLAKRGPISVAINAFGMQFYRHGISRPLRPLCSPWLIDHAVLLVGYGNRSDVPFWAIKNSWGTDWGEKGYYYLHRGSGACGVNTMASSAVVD
Experiment: Cathepsin F assay (hCat F)
Assay type: biochemical
Conditions: Z-Phe-Arg-AMC substrate, pH 5.5, 15 min preincubation; read-out: hCat F (IP (nM))
PROPERTY_MEASURED: IC50 (nM)

Illustrative cases are given below, each with its answer.
# value lookup — system human cathepsin F (Homo sapiens), readout IC50, item Cc1nc([C@@H]2CC[C@H](F)C[C@H]2C(=O)N[C@@H](C)C#N)c(-c2ccc(N3CCS(=O)(=O)CC3)cc2)s1 9010

# value lookup — system human cathepsin F (Homo sapiens), readout IC50, item Cn1cccc(-c2nc([C@@H]3CCCC[C@H]3C(=O)NC3(C#N)CC3)c(-c3ccc(N4CCS(=O)(=O)CC4)cc3)s2)c1=O 879

# value lookup — system human cathepsin F (Homo sapiens), readout IC50, item N#CC1(NC(=O)[C@@H]2CCCC[C@H]2c2nc(-c3cnc(C4CC4)c(F)c3)sc2-c2ccc(N3CCS(=O)(=O)CC3)cc2)CC1 3330

# value lookup — system human cathepsin F (Homo sapiens), readout IC50, item CS(=O)(=O)c1ccc(-c2sc(-c3cncc(F)c3)nc2[C@@H]2CCCC[C@H]2C(=O)NC2(C#N)CC2)cc1 310

# value lookup — system human cathepsin F (Homo sapiens), readout IC50, item N#CC1(NC(=O)[C@@H]2CCCC[C@H]2c2nc(N3CCO[C@H](C(F)(F)F)C3)sc2-c2ccc(N3CCS(=O)(=O)CC3)cc2)CC1 7050

# value lookup — system human cathepsin F (Homo sapiens), readout IC50, item C[C@@H](C#N)NC(=O)[C@@H]1C[C@@H](F)CC[C@H]1c1nc(C(C)(C)C)oc1-c1ccc(N2CCS(=O)(=O)CC2)cc1 5660

a. N#CC1(NC(=O)[C@@H]2CC(F)(F)CC[C@H]2c2nc(-c3ccc(F)cc3)sc2-c2ccc(C(=O)N3CCC(O)CC3)cc2)CC1
b. N#CC1(NC(=O)[C@@H]2CC3CC3C[C@H]2c2nc(-c3ccc(F)cn3)sc2-c2ccc(N3CCS(=O)(=O)CC3)cc2)CC1 (single isomer, unassigned) [Example 100]
Given a and b , report the one with the higher recorded IC50. // return label of chosen record b
(b: 632 nM, a: 73 nM)

1. N#CC1(NC(=O)[C@@H]2CCCC[C@H]2c2nc(-c3ccc(F)cc3)sc2-c2ccc(C(=O)N3CCOCC3)cc2)CC1
2. N#CC1(NC(=O)[C@@H]2CCCC[C@H]2c2nc(-c3cc(F)cc(F)c3)sc2-c2ccc(N3CCS(=O)(=O)CC3)cc2)CC1
# min-compare on IC50 between 1 and 2 // return label of chosen record 1
(1: 422 nM, 2: 650 nM)

A. CC(C)(C)c1nc([C@@H]2CCCC[C@H]2C(=O)NCC#N)c(-c2ccc(N3CCS(=O)(=O)CC3)cc2)s1
B. CC(C)(C)c1nc([C@@H]2CCCC[C@H]2C(=O)NC2(C#N)CC2)c(-c2ccc(N3CCS(=O)(=O)CC3)cc2)s1
# min-compare on IC50 between A and B // return label of chosen record A
(A: 851 nM, B: 8630 nM)
